target-system: PfENT1 (Plasmodium falciparum, UniProt Q8IDM6)
Construct: expressed in transfected cells; host or cells: fui1Δ yeast (Saccharomyces cerevisiae), co-expressing GFP
Sequence (Q8IDM6 whole entry): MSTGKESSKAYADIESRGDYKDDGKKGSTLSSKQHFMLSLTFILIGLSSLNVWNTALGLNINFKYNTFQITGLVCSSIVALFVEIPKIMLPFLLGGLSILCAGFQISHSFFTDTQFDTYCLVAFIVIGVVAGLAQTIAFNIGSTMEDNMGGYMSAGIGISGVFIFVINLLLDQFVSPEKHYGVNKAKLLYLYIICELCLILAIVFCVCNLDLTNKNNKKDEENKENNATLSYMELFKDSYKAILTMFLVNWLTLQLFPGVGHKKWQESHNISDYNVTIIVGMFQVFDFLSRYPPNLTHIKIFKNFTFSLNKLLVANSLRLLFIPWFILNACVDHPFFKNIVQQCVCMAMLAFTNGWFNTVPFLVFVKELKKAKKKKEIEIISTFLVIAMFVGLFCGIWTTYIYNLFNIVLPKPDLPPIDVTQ
Type: cell-based
settings: primary HTS, compounds at 10 μM, 125 μM 5-FUrd

{"columns": ["molecule", "target-system", "Avg Normalized % maximal activity / %"],
 "data": [
  ["Cc1cccn2c(=O)c3cc(C(=O)NC4CCCC4)sc3nc12 [compound 55]", "PfENT1 (Plasmodium falciparum, UniProt Q8IDM6)", 7.75],
  ["Cc1c(/C=C/c2nc3ccccc3c(=O)[nH]2)c2ccccc2n1C [compound 34]", "PfENT1 (Plasmodium falciparum, UniProt Q8IDM6)", 11.27],
  ["CCOC(=O)c1cc(NC(=O)c2ccccc2F)ccc1N1CCOCC1 [compound 40]", "PfENT1 (Plasmodium falciparum, UniProt Q8IDM6)", 10.29]
]}

Recorded values, source patent US9695193B2.
